Molecular target: acyl-CoA:cholesterol acyl-transferase (ACAT)
Assay: In vitro ACAT inhibition test (radio-labeled cholesterol oleate formed from radio-labeled oleic acid in rabbit intestinal microsomes)
Conditions: tissue preparation containing rabbit intestinal microsomes; concentration required to inhibit 50% expression of the enzyme; read-out: IC₅₀
Procedure: The ability of representative compounds of the present invention to inhibit ACAT was measured using an in vitro test more fully described in Field, F. J. and Salone, R. G., Biochemica et Biophysica 712: 557-570 (1982). […] The data appear in Table 1 where they are expressed as IC₅₀ values; i.e. the concentration of test compound required to inhibit 50% expression of the enzyme.
pIC50: −log10 of the molar value.
quantity.measured: pIC50

{"columns": ["structure.string", "assay.system", "pIC50"],
 "data": [
  ["Cc1cccc(C)c1NC(=O)NCC1(c2ccccc2)CCCC1", "acyl-CoA:cholesterol acyl-transferase (ACAT)", 6.81],
  ["CCc1cccc(C(C)C)c1NC(=O)NCC1(c2ccccc2)CCCC1", "acyl-CoA:cholesterol acyl-transferase (ACAT)", 7.60],
  ["CCc1cccc(CC)c1NC(=O)NCC1(c2ccccc2)CCCCC1", "acyl-CoA:cholesterol acyl-transferase (ACAT)", 7.29],
  ["CCc1cccc(CC)c1NC(=O)NC1(c2cccs2)CCCCC1", "acyl-CoA:cholesterol acyl-transferase (ACAT)", 7.32],
  ["CC(C)c1cccc(C(C)C)c1NC(=O)NCC1(c2ccccc2)CCCC1", "acyl-CoA:cholesterol acyl-transferase (ACAT)", 7.77]
]}

I = Cc1cccc(C(C)(C)C)c1NC(=O)NCC1(c2ccccc2)CCCCC1
II = CCc1cccc(C(C)C)c1NC(=O)NCC1(c2ccccc2)CCCCC1
III = Cc1cccc(C)c1NC(=O)NC1(c2cccs2)CCCCC1
IV = O=C(NCC1(c2ccccc2)CCCCC1)Nc1ccc(F)cc1F
Sort entries by pIC50 from minimum to maximum value. Answer format: the labels, ordered as requested.
IV, III, I, II
(IV: 6.10, III: 6.89, I: 7.27, II: 7.70)
